# target.or.system: glucose-6-phosphate dehydrogenase-6-phosphogluconolactonase (Plasmodium falciparum 3D7)
# assay.notes: inhibition of P. falciparum G6PD activity – biochemical, end-point NADPH detection, orthogonal assay, dose response (AID 540252)
# protocol.conditions: purified PfG6PD enzyme, NADPH direct detection
Active and inactive are the calls of the source. No rule for the calls is given here.
assay.endpoint: IC50

// worked examples, IC50 included
In: GET /values?readout=IC50&system=glucose-6-phosphate dehydrogenase-6-phosphogluconolactonase (Plasmodium falciparum 3D7)&item= COc1cccc(-c2c(C(=O)N/N=C/c3ccc(C)s3)nnn2-c2nonc2N)c1
Out: > 80 µM (inactive)

In: Lookup O=C1NC(=S)NC(=O)C1=Cc1ccc(Br)s1
Out: > 80 µM (inactive)

In: Same for COC(=O)C1=C(C(=O)OC)SC2(S1)C(C(=O)OC)=C(C(=O)OC)Sc1c2ssc1=O
Out: > 80 µM (inactive)

In: Further, for O=C1Nc2cc(C(=O)NCCCN3CCCC3)ccc2S/C1=C\c1ccccc1 ?
Out: > 80 µM (inactive)

In: Next molecule up: Cc1ccc(Nc2cc(C)c(O)c(C)c2)cc1
Out: > 80 µM (inactive)

More entries:
In: Entry Cc1ccccc1OCC(=O)NCC(=O)OCC(=O)c1ccc([N+](=O)[O-])cc1 , system glucose-6-phosphate dehydrogenase-6-phosphogluconolactonase (Plasmodium falciparum 3D7): what IC50 was measured?
Out: 50.1 µM

In: Consider next the molecule COc1ccc(N2C(=O)/C(=C/c3cccs3)NC2=S)cc1 in the same way.
Out: > 80 µM (inactive)

In: What about this molecule? Cc1cc(C)c(NC(=S)NCC2CCN(C(C)c3ccccc3)C2)c(C)c1 (configuration not stated)
Out: 64.1 µM

In: Try this molecule too: O=C(COc1cccc2ccccc12)Nc1ccc(Cl)cc1C(=O)O
Out: > 80 µM (inactive)

In: Do the same for Cc1cc(C)c2c(=O)n(CC(=O)Nc3cccc(F)c3)sc2n1 please
Out: > 80 µM (inactive)

In: Queued: O=C1OC(c2ccc3ccccc3c2O)(c2ccc3ccccc3c2O)c2ccccc21
Out: > 80 µM (inactive)

In: Request: O=[N+]([O-])c1cccc(SSc2cccc([N+](=O)[O-])c2)c1
Out: 45.3 µM

----------
# target.or.system: glucose-6-phosphate dehydrogenase-6-phosphogluconolactonase (Plasmodium falciparum 3D7)
# assay.notes: inhibition of P. falciparum G6PD activity – biochemical, end-point NADPH detection, orthogonal assay, dose response (AID 540252)
# protocol.conditions: purified PfG6PD enzyme, NADPH direct detection
The source made the active and inactive calls. No rule for the calls is given here.
Hello, when you answer, please use one of the following outcomes: YES for active, NO for inactive

Solved entries (count: 10):
In: Hi, sorry to bother you, what did the test record for CC1=NOC(=O)/C1=C\c1ccc(-c2ccccc2Br)o1 ?
Out: NO

In: Could you do the same for O=S(=O)(NCc1csc(-c2ccccc2)n1)c1ccc(Cl)s1 , please?
Out: NO

In: Param item: COC(=O)CCC(=O)OC1(C)C(=O)C2=CN(C3CC3)C(c3ccc(OC)cc3)=CC2=C(Br)C1=O (configuration not stated)
Out: NO

In: Entry Cc1cc(C)c2c(=N)c3ccccc3n(CCCCCCCCn3c4ccccc4c(=N)c4c(C)cc(C)nc43)c2n1 please
Out: NO

In: Same again, this time with O=C(Nc1nnc(S(=O)(=O)N2CCCC2)s1)c1cccc([N+](=O)[O-])c1
Out: NO

In: Moving on to COc1ccc(-n2sc3ccccc3c2=O)cc1
Out: YES

In: Also need COc1ccc2ccccc2c1C1CC(=O)N2CN(C3CCCCC3)CSC2=C1C#N (configuration not stated) , thanks.
Out: NO

In: Consider next the molecule OCc1ccccc1SSc1ccccc1CO in the same way.
Out: YES

In: Cool, now CC1CN(c2ccccc2)NC1=O (configuration not stated)
Out: NO

In: Moving on to the next molecule: CCn1c(SCc2nc3scc(-c4ccccc4)c3c(=O)[nH]2)nnc1-c1cccs1
Out: NO

***
In: GET /call?item= COc1ccc2c(c1)c(=Cc1ccc(N(C)C)cc1)c1cc(-c3ccccc3)[n+](C)n12 returns the recorded outcome of this test.
Out: NO

In: Thanks! And Cc1ccc(S(=O)(=O)N(C)C)cc1NC(=O)CSc1nc2ncc(Cl)cc2[nH]1 ?
Out: NO

In: Try Cc1cccc(C(=O)Nc2sc3c(c2C(=O)O)CCCC3)c1 next.
Out: NO
